System: CD8+ and CD4+ T cells (autologous CD3+ Pan-T cells isolated from human normal PBMCs)
Assay: Exogenous autologous normal donor restimulation assay (15-mer overlapping peptide pools on CD1c+ dendritic cells, TNFα/IFNγ flow cytometry)
Assay type: cell-based
Conditions: Table 28; additional neoantigens; 15-mer overlapping peptide pool; highest across normal donors
Assay readout: Max. Fold Change over background CD4+ TNFαINFγ double positive DP

Substance: MS7 (KKDLELIL; listed as Homo sapiens)
Result: 10.52

Substance: WCPLDLRLGSTGCLTCRHHQTSHE (listed as Homo sapiens) [AS4, NCAPD3 alternative splicing]
Result: 37.38

Substance: MFLRKEQQVGPHSFSML (listed as Homo sapiens) [AS14, IQCG alternative splicing]
Result: 1.49

Substance: FARKMLEKVHRQHLQLSHNSQE (listed as Homo sapiens) [AS12, EVPL alternative splicing]
Result: 7.32

Substance: AGAGTISEGSVLHGQRLECDARRFFGCGTTILAEWEHH (listed as Homo sapiens) [AS59, ACSL3 alternative splicing]
Result: 59.58

Substance: DCMLSEEGGQARRGGSLCSLAAHTIASAARGRFLSRLSNFCAVVKASRGAPSCTWE (listed as Homo sapiens) [AS40, LRRC45 alternative splicing]
Result: 15.34

Substance: GLNLNTDRPGGYSYSIWWKNNAKNR (listed as Homo sapiens) [AS17, MPHOSPH9 alternative splicing]
Result: 3.18

Substance: KWNKNWTATLGALTIRGHKLLCHLPHLLSSVQQTCRSSSR (listed as Homo sapiens) [AS46, SERINC5 alternative splicing]
Result: 157.98

Substance: MS4 (SYFSLTNIFNFV; listed as Homo sapiens)
Result: 367.35

Reference source for all entries: patent US12295997B2
